# systemName: ERα (Homo sapiens, UniProt P03372)
# Construct: host or cells: MCF7
# Sequence (P03372 1-595): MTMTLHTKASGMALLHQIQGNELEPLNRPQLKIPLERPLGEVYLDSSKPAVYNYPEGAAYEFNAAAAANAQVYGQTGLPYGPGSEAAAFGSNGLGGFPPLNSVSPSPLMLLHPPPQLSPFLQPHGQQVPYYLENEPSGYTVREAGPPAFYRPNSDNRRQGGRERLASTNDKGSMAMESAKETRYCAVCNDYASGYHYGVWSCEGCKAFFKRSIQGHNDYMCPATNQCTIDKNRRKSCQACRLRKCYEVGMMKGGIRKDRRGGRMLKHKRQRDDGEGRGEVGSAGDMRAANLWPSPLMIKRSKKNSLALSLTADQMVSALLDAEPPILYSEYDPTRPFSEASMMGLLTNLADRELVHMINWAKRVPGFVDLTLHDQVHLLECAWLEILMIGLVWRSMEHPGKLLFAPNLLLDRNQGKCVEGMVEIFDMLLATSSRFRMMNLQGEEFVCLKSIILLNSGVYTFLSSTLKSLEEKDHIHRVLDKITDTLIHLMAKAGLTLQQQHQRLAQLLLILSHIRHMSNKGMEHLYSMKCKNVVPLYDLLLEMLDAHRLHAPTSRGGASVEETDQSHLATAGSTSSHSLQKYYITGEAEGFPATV
# protocolDetails: Estrogen receptor degradation activity: breast cancer cell ERα in cell western assay (MCF7 cells)
# Format: cell-based
# experimentalSetup: 4 hours, % of ERα levels decrease relative to fulvestrant (0.1 μM) and DMSO
Here the recorded % Degradation At 0.3 μM is given for each entry.
The answer is to be given in %; state only the numeric part.

> print(dat)
                    compoundstructurestring          measurementname  testresult
1  O=C(O)c1ccc2c(c1)CCCC(c1ccc(Cl)cc1)=C2c1ccc(/C=C2/CCN(CCCF)C2)cc1  % Degradation At 0.3 μM          93

Which measured % Degradation At 0.3 μM belongs to `O=C(O)c1ccc2c(c1)CCCC(c1ccc(F)cc1Cl)=C2c1ccc(/C=C2/CCN(CCCF)C2)cc1` , tested on ERα (Homo sapiens, UniProt P03372)? 91

Now try `Cc1cc(F)ccc1C1=C(c2ccc(/C=C3/CCN(CCCF)C3)cc2)c2ccc(C(=O)O)cc2CCC1` . 96

Same lookup for `O=C(O)c1ccc2c(c1)CCCC(c1cccc(C(F)(F)F)c1)=C2c1ccc(/C=C2/CCN(CCCF)C2)cc1` , please. 91
